Tested on: CCRIS mutagenicity, Ames/micronucleus/aberration tests
Method description: CCRIS mutagenicity studies
Test parameters: Test System: AMES SALMONELLA TYPHIMURIUM; Strain/Indicator: TA100; Metabolic Activation: NONE; Method: STANDARD PLATE
The source made the active and inactive calls. No rule for the calls is given here.
Choose the fitting class; nothing outside active, inactive is accepted.

Query: Short answer needed: outcome of this test for "CC(=O)OCc1c(O)c(C(=O)O)c(C)c2c1OC(=O)c1c(C)cc(O)c(C=O)c1O2" ?
Response: inactive

Query: recorded result category for c1ccc(CC2CO2)cc1 (stereo unspecified) in this test
Response: active

Query: I would be grateful if you could indicate the recorded call for "Cc1c2ccccc2c(CBr)c2ccccc12" .
Response: inactive

Query: Identify the outcome logged in this assay for the compound shown: "c1ccc2c(c1)ccc1cc3ccc4ccncc4c3cc12"
Response: inactive

Query: State the result this test recorded for "CC(C)C[C@H](NC(=O)COc1cc(Cl)c(Cl)cc1Cl)C(=O)O" .
Response: inactive

Query: Short answer needed: outcome of this test for Clc1ccc(CC2CO2)cc1 (stereo unspecified) ?
Response: active

Query: Please let me know the test result on file for "C=CC(=O)OC" .
Response: inactive

Query: Record lookup: outcome of this test for "c1ccc([C@H]2CO2)cc1" ?
Response: active

Query: Per the assay record, what outcome was assigned to "c1ccc2c(c1)CC[C@H]1CCC[C@@H]3O[C@]213" ?
Response: inactive

Query: Please let me know the test result on file for "Nc1cc2nc3ccccc3nc2cc1N" .
Response: inactive

Query: Please indicate how the test categorized "Oc1ccc2ccc3c4ccccc4cc4ccc1c2c43" .
Response: active

Query: What did the test return for "C=CCCCCCCCCCCCC" ?
Response: inactive

Query: Could you kindly confirm the outcome this assay logged for "BrCc1ccc2cccc3c2c1-c1ccccc1-3" ?
Response: active

Query: Name the outcome recorded for "Cc1cc(O)cc2oc(=O)c3c(O)cc(O)cc3c12" in the assay.
Response: inactive

Query: Could you kindly confirm the outcome this assay logged for "Cc1ccc(N=Nc2c(O)ccc3ccccc23)cc1" ?
Response: inactive

Query: Name the outcome recorded for "O=[N+]([O-])C1=Cc2c3ccc4ccccc4c3cc3cccc1c23" in the assay.
Response: inactive

Query: What is the recorded call for this compound in the test? "CC(=O)Nc1ccc(Oc2ccc(Cl)cc2Cl)cc1"
Response: inactive

Query: Can you look up the reported call for "CN=C1C=CC(=C(c2ccc(NC)cc2)c2ccc(N(C)C)cc2)C=C1" for me?
Response: inactive

Query: How did this test come out for "O=S(O)O" ?
Response: inactive

Query: Just curious, what result did "O=C(O)c1cc(=O)c2c(OCC(O)COc3cccc4oc(C(=O)O)cc(=O)c34)cccc2o1" get here?
Response: inactive

Query: What is the recorded call for this compound in the test? "O=[N+]([O-])c1cc(C(F)(F)F)cc([N+](=O)[O-])c1O"
Response: inactive

Query: Status in this test for c1ccc2c(c1)cc1c3c2ccc2cccc(c23)C2NC12 (stereo unspecified) ?
Response: active

Query: Recorded call for "O=C1c2c(O)ccc([N+](=O)[O-])c2C(=O)c2c([N+](=O)[O-])ccc(O)c21" ?
Response: active

Query: Could you please tell me the result logged for "CC(C)CN(C(=O)CCCl)c1snc2ccccc12" in this assay?
Response: inactive

Query: Field: outcome | Entry: "Clc1ccc2oc3ccccc3c2c1"
Response: inactive

Query: // param item: "O=C(O)/C=C/c1ccc([N+](=O)[O-])cc1" ; yields the recorded call
Response: active

Query: Hey, what did the test say about "CCN(CC)Cc1cc(Nc2ccnc3cc(Cl)ccc23)ccc1O" ?
Response: inactive

Query: I would be grateful if you could indicate the recorded call for "CCN(N=O)C(N)=O" .
Response: active

Query: Call for entry "C=C1CC/C=C(/C)CC[C@@H]2[C@@H]1CC2(C)C" :
Response: inactive

Query: What call does the record list for "NCCNCCO" ?
Response: inactive

Query: // return assay outcome for "CCCCC1C(=O)N(c2ccccc2)N(c2ccccc2)C1=O"
Response: inactive

Query: For this compound, state the assay outcome: "Nc1nc(NO)c2[nH]cnc2n1"
Response: active

Query: Which result was noted for this compound in the test: "Cc1cncc(C)n1"
Response: inactive

Query: Answer briefly: the call reported for "BrCc1ccc(CBr)cc1" in this assay.
Response: inactive

Query: I would be grateful if you could indicate the recorded call for "O=[N+]([O-])c1ccc2ccc3c4ccccc4c([N+](=O)[O-])c4ccc1c2c43" .
Response: active

Query: I would be grateful if you could indicate the recorded call for C=C(C)C(=O)OCC(O)COc1ccc(C(C)(C)c2ccc(OCC(O)COC(=O)C(=C)C)cc2)cc1 (stereo unspecified) .
Response: inactive

Query: Name the outcome recorded for "CC/C=C\C/C=C\C/C=C\CCCCCCCC(=O)O" in the assay.
Response: inactive

Query: Outcome logged for "ClC(Cl)Cl" in this assay:
Response: active

Query: Outcome logged for "Cn1cnc(-c2ccccc2)c1N=O" in this assay:
Response: active

Query: Lab log entry: "Cl/C=C(\Cl)C(Cl)Cl" — outcome as called in the assay?
Response: active

Query: Which outcome was assigned to "O=C([O-])c1cc(N=Nc2ccc(-c3ccc(N/N=c4/c(=O)cc/c(=N\Nc5cc(S(=O)(=O)[O-])ccc5[O-])c4=O)cc3)cc2)ccc1[O-].[Cu+2].[Na+].[Na+]" in this test?
Response: inactive

Query: Could you please tell me the result logged for "Nc1ccc(-c2ccc(N)cc2[N+](=O)[O-])cc1" in this assay?
Response: inactive

Query: Identify the outcome logged in this assay for the compound shown: "O=[N+]([O-])c1ccccc1OS(=O)(=O)c1cccc2cccnc12"
Response: inactive

Query: Hi, sorry to bother you, what did the test record for "NC(=O)CCC(=O)Nc1ccc(Cl)c(Cl)c1" ?
Response: inactive

Query: What classification did "Clc1cnc(Oc2ccc(Oc3ncc(Cl)cc3Cl)cc2)c(Cl)c1" end up with in this test?
Response: inactive

Query: Identify the outcome logged in this assay for the compound shown: "CN(C)C1Cc2cccc3cccc(c23)C1"
Response: inactive
